B1: tRNA (parent)
chain: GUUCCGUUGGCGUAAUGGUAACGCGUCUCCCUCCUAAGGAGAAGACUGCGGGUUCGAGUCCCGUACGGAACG

# Variants of: B1
# Measurement Protocol: yeast fitness relative to wild type (ratio to wild type); higher = fitter; tRNA-Arg(CCU), competitive growth, 37 C, YPD
Variants at the floor of the assay were thinned out.
Experimental Endpoint: yeast fitness

>  <Variant Name>
A14G G18C A21U C29G G67A

>  <Experimental Endpoint>
yeast fitness

>  <Result Comparator>
≤

>  <Recorded Number>
0.5

$$$$
>  <Variant Name>
C11G C24U A42C A65C

>  <Experimental Endpoint>
yeast fitness

>  <Result Comparator>
≤

>  <Recorded Number>
0.5

$$$$
>  <Variant Name>
A20U C27G C29A A57G A65G

>  <Experimental Endpoint>
yeast fitness

>  <Result Comparator>
≤

>  <Recorded Number>
0.5

$$$$
>  <Variant Name>
C5G U8C A20G A43U G51A A65C

>  <Experimental Endpoint>
yeast fitness

>  <Result Comparator>
≤

>  <Recorded Number>
0.5

$$$$
>  <Variant Name>
G10C A45U

>  <Experimental Endpoint>
yeast fitness

>  <Result Comparator>
=

>  <Recorded Number>
0.778

$$$$
>  <Variant Name>
C30U C34G U53C A69C

>  <Experimental Endpoint>
yeast fitness

>  <Result Comparator>
≤

>  <Recorded Number>
0.5

$$$$
>  <Variant Name>
C5G A14C C31G G56A A70U

>  <Experimental Endpoint>
yeast fitness

>  <Result Comparator>
≤

>  <Recorded Number>
0.5

$$$$
>  <Variant Name>
U3A U19A C46A G56A

>  <Experimental Endpoint>
yeast fitness

>  <Result Comparator>
=

>  <Recorded Number>
0.564

$$$$
>  <Variant Name>
U3C C31U A45U

>  <Experimental Endpoint>
yeast fitness

>  <Result Comparator>
=

>  <Recorded Number>
0.718

$$$$
>  <Variant Name>
U2C C29A G44C C46G C62A

>  <Experimental Endpoint>
yeast fitness

>  <Result Comparator>
≤

>  <Recorded Number>
0.5

$$$$
>  <Variant Name>
G39A G68C

>  <Experimental Endpoint>
yeast fitness

>  <Result Comparator>
=

>  <Recorded Number>
0.806

$$$$
>  <Variant Name>
A20C C31G A36G

>  <Experimental Endpoint>
yeast fitness

>  <Result Comparator>
=

>  <Recorded Number>
0.764

$$$$
>  <Variant Name>
G12C U28A C66U G68A

>  <Experimental Endpoint>
yeast fitness

>  <Result Comparator>
≤

>  <Recorded Number>
0.5

$$$$
>  <Variant Name>
U26C G68A

>  <Experimental Endpoint>
yeast fitness

>  <Result Comparator>
=

>  <Recorded Number>
0.863

$$$$
>  <Variant Name>
A15U C24G G38A

>  <Experimental Endpoint>
yeast fitness

>  <Result Comparator>
=

>  <Recorded Number>
0.551

$$$$
>  <Variant Name>
U8C C11U U16C C46U C49A

>  <Experimental Endpoint>
yeast fitness

>  <Result Comparator>
=

>  <Recorded Number>
0.573

$$$$
>  <Variant Name>
A20U U28C A40U C62G

>  <Experimental Endpoint>
yeast fitness

>  <Result Comparator>
=

>  <Recorded Number>
0.533

$$$$
>  <Variant Name>
U8A C24U U47C

>  <Experimental Endpoint>
yeast fitness

>  <Result Comparator>
=

>  <Recorded Number>
0.575

$$$$
>  <Variant Name>
A42C A57C C61A

>  <Experimental Endpoint>
yeast fitness

>  <Result Comparator>
≤

>  <Recorded Number>
0.5

$$$$
>  <Variant Name>
C49A C62U

>  <Experimental Endpoint>
yeast fitness

>  <Result Comparator>
=

>  <Recorded Number>
0.717

$$$$
>  <Variant Name>
C4G A21G C34U G44C C55G

>  <Experimental Endpoint>
yeast fitness

>  <Result Comparator>
≤

>  <Recorded Number>
0.5

$$$$
>  <Variant Name>
C4G G9A C49A C55U

>  <Experimental Endpoint>
yeast fitness

>  <Result Comparator>
≤

>  <Recorded Number>
0.5

$$$$
>  <Variant Name>
C11G G12A C31G

>  <Experimental Endpoint>
yeast fitness

>  <Result Comparator>
≤

>  <Recorded Number>
0.5

$$$$
>  <Variant Name>
U3G C66G

>  <Experimental Endpoint>
yeast fitness

>  <Result Comparator>
=

>  <Recorded Number>
0.712

$$$$
>  <Variant Name>
U32G C61U C66U A69G

>  <Experimental Endpoint>
yeast fitness

>  <Result Comparator>
≤

>  <Recorded Number>
0.5

$$$$
>  <Variant Name>
C24U C31G U32A

>  <Experimental Endpoint>
yeast fitness

>  <Result Comparator>
=

>  <Recorded Number>
0.504

$$$$
>  <Variant Name>
A21C C34A G38A A45U

>  <Experimental Endpoint>
yeast fitness

>  <Result Comparator>
=

>  <Recorded Number>
0.546

$$$$
>  <Variant Name>
C27U U32C C62G

>  <Experimental Endpoint>
yeast fitness

>  <Result Comparator>
≤

>  <Recorded Number>
0.5

$$$$
>  <Variant Name>
C34U G50A U59C C62A U64A

>  <Experimental Endpoint>
yeast fitness

>  <Result Comparator>
≤

>  <Recorded Number>
0.5

$$$$
>  <Variant Name>
C24G U28G C33U A42U G50A A70U

>  <Experimental Endpoint>
yeast fitness

>  <Result Comparator>
≤

>  <Recorded Number>
0.5

$$$$
>  <Variant Name>
C31G A37C A70C

>  <Experimental Endpoint>
yeast fitness

>  <Result Comparator>
≤

>  <Recorded Number>
0.5

$$$$
>  <Variant Name>
C4U C11U A43U C55G

>  <Experimental Endpoint>
yeast fitness

>  <Result Comparator>
≤

>  <Recorded Number>
0.5

$$$$
>  <Variant Name>
C22G A37U A57C

>  <Experimental Endpoint>
yeast fitness

>  <Result Comparator>
≤

>  <Recorded Number>
0.5

$$$$
>  <Variant Name>
G10A U35A G63C

>  <Experimental Endpoint>
yeast fitness

>  <Result Comparator>
≤

>  <Recorded Number>
0.5

$$$$
>  <Variant Name>
C11U G17A G48A G51C C60A U64C

>  <Experimental Endpoint>
yeast fitness

>  <Result Comparator>
=

>  <Recorded Number>
0.623

$$$$
>  <Variant Name>
U3G C4U U35A G58A G67A

>  <Experimental Endpoint>
yeast fitness

>  <Result Comparator>
≤

>  <Recorded Number>
0.5

$$$$
>  <Variant Name>
C5G C31U G52A

>  <Experimental Endpoint>
yeast fitness

>  <Result Comparator>
=

>  <Recorded Number>
0.612

$$$$
>  <Variant Name>
G23A C31G A45C G52C

>  <Experimental Endpoint>
yeast fitness

>  <Result Comparator>
≤

>  <Recorded Number>
0.5

$$$$
>  <Variant Name>
C29A A37U A65U

>  <Experimental Endpoint>
yeast fitness

>  <Result Comparator>
≤

>  <Recorded Number>
0.5

$$$$
>  <Variant Name>
U13G U32G A45G C49U A70U

>  <Experimental Endpoint>
yeast fitness

>  <Result Comparator>
≤

>  <Recorded Number>
0.5

$$$$
>  <Variant Name>
A14C C30A

>  <Experimental Endpoint>
yeast fitness

>  <Result Comparator>
=

>  <Recorded Number>
0.576

$$$$
>  <Variant Name>
G6A G56C

>  <Experimental Endpoint>
yeast fitness

>  <Result Comparator>
=

>  <Recorded Number>
0.672

$$$$
>  <Variant Name>
C30G G56C C62U

>  <Experimental Endpoint>
yeast fitness

>  <Result Comparator>
≤

>  <Recorded Number>
0.5

$$$$
>  <Variant Name>
A21U C24U U26A A43U

>  <Experimental Endpoint>
yeast fitness

>  <Result Comparator>
=

>  <Recorded Number>
0.668

$$$$
>  <Variant Name>
A15G A36G

>  <Experimental Endpoint>
yeast fitness

>  <Result Comparator>
=

>  <Recorded Number>
0.867

$$$$
>  <Variant Name>
U2C G51A

>  <Experimental Endpoint>
yeast fitness

>  <Result Comparator>
=

>  <Recorded Number>
0.822

$$$$
